# measurement.target: UniProtKB O60674
# Sequence (O60674 whole entry): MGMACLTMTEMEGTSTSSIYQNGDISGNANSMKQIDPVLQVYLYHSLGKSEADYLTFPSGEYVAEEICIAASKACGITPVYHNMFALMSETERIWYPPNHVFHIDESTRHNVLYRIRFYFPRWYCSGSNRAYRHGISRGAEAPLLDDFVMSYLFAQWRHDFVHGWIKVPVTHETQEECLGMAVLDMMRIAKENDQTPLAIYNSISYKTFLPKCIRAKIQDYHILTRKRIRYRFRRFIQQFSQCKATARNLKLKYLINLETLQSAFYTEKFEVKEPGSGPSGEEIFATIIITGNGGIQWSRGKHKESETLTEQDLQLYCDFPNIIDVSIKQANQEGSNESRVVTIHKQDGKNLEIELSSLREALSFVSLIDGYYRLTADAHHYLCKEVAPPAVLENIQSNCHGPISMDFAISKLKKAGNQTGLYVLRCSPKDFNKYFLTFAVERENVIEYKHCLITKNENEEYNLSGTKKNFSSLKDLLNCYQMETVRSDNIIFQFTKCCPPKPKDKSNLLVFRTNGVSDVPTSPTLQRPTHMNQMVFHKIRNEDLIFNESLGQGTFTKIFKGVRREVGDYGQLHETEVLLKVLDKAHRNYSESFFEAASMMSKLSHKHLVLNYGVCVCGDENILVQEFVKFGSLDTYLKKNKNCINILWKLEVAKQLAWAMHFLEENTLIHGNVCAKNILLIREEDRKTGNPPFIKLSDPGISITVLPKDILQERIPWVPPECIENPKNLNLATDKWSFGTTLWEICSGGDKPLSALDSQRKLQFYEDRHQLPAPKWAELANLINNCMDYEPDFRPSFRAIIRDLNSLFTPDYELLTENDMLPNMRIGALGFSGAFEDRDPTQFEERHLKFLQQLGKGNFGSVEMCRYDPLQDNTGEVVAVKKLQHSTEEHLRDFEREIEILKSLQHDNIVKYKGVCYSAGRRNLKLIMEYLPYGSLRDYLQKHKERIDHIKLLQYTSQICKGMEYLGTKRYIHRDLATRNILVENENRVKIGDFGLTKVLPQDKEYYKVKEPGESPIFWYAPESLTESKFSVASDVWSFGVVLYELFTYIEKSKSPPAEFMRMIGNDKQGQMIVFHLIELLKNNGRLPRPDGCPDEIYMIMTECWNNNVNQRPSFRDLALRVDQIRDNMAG
# test.description: Enzyme inhibition JAK2
# Type: biochemical
# condition.parameters: Inhibitory effect (IC50) JAK2 Repeat 1, Repeat 1
observation.type: pIC50
Here pIC50 is given on a logarithmic scale as minus log10 of the concentration in mol/L.

Tell me the measured pIC50 of O=C1C=CC2(C=C1)OCC(=O)N2c1nc(-c2cccc3ccccc23)nn1-c1ccccc1 , please.
4.38

Data provenance is paper PMC8569940.
